# assaySystem: SARS-CoV-2 spike (S) protein on authentic SARS-CoV-2 virus (strain WA1/2020) (SARS-CoV-2, UniProt P0DTC2 14-1273)
# protocolDetails: cell-based or functional assay
Record form. Attribute: Neutralization IC50 (FRNT, authentic SARS-CoV-2 WA1/2020). Fill in for each entry.
Enter your answer as a number in µg/mL; do not include the unit.

# return recorded Neutralization IC50 (FRNT, authentic SARS-CoV-2 WA1/2020) for input COV2-2082 (antibody, V domains shown) VH: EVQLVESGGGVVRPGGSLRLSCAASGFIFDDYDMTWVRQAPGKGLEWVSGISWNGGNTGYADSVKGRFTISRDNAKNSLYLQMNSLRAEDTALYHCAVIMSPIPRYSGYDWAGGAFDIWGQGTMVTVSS VL: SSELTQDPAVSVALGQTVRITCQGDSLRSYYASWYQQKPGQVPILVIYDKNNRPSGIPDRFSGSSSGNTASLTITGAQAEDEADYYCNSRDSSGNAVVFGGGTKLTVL
0.204

Report measured Neutralization IC50 (FRNT, authentic SARS-CoV-2 WA1/2020); entry is COV2-2103 (antibody, V domains shown) VH: EVQLVESGGGLVQPGGSLRLSCAASGFTFSRHWMTWVRQAPGKGLEWVANIKQDGSEKYYVDSVKGRLTISRDNAKNSLYLQMNSLRAEDTAVYYCARLGFYYGGADYWGQGTLVTVSS VL: NFMLTQPHSVSESPGKTVTISCTGSSGSIASNYVQWYQQRPGSAPTTVISEDNQRPSGVPDRFSGSIDSSSNSASLTISGLKTEDEADYYCQSYDGINRAWVFGGGTKLTVL
1.97

Item COV2-2113 (antibody, V domains shown) VH: EVQLVESGGGLIQPGGSLRLSCAASEVTVSSNYMSWVRQAPGKGLEWVSLIYSGGTTYYADSVKGRFTISRDNSKNTLYLQMNSLRAEDTAVYYCARDFLRWHDLWGQGTLVTVSS VL: DIQMTQSPSSLSASVGDRVTITCQASQDINNYLNWYQQKPGKAPKLLIYDASNLETGVPLRFSGSGSGTDFIFTISSLQPEDIATYYCQQYDNLPPVFGGGTKVEIK : provide Neutralization IC50 (FRNT, authentic SARS-CoV-2 WA1/2020)
1.04

In one line, give reported Neutralization IC50 (FRNT, authentic SARS-CoV-2 WA1/2020) of the entry COV2-2068 (antibody, V domains shown) VH: EVQLVESGGGLVQPGGSLRLSCAASGFTVSSNYMSWVRQAPGKGLEWVSVIYPGGSAFYADSVKGRFTISRHNSNNTLCLQMNSLRTEDTAVYYCARSYDILTGYRDAFDIWGQGTMVTVSS VL: QSVLTQPPSVSGAPGQRVTISCTGSSSNIGSGSDVHWYQQLPGTAPKLLIYGNTNRPSGVPDRFSGSKSGTSASLAITGLQAEDEADYYCQSYDSRLSGFVVFGGGTKLTVL .
0.478

Check the records and state Neutralization IC50 (FRNT, authentic SARS-CoV-2 WA1/2020) for COV2-2098 (antibody, V domains shown) VH: EVQLLESGGGLIQPGGSLRLSCAASGFTFSNYAMSWVRQAPGKGLEWVSGIISTSGGATYNADSVRGRFTTSRDNSKNILYLQMNSLRGEDTAVYYCVKGLFDWFPLWGQGTMVTVSS VL: DIVMTQSPATLSVSPGERAILSCRASQSVRSNLAWYQQKPGQAPRLLISGASTRATAIPARFSGSGSGTEFTLTITSLQSEDCAVYYCHQYNNWPQTFGQGTKVEIK
1.03
